- SYSTEM UNDER TEST: human TRPV1 (Homo sapiens, UniProt Q8NER1)
- Construct: using primers designed surrounding the complete hTRPV1 open reading frame; expressed in transfected cells; host or cells: CHO-K1 cells stably transfected with pcDNA3.1(-)-hVR1 plasmid
- Sequence (Q8NER1 whole entry): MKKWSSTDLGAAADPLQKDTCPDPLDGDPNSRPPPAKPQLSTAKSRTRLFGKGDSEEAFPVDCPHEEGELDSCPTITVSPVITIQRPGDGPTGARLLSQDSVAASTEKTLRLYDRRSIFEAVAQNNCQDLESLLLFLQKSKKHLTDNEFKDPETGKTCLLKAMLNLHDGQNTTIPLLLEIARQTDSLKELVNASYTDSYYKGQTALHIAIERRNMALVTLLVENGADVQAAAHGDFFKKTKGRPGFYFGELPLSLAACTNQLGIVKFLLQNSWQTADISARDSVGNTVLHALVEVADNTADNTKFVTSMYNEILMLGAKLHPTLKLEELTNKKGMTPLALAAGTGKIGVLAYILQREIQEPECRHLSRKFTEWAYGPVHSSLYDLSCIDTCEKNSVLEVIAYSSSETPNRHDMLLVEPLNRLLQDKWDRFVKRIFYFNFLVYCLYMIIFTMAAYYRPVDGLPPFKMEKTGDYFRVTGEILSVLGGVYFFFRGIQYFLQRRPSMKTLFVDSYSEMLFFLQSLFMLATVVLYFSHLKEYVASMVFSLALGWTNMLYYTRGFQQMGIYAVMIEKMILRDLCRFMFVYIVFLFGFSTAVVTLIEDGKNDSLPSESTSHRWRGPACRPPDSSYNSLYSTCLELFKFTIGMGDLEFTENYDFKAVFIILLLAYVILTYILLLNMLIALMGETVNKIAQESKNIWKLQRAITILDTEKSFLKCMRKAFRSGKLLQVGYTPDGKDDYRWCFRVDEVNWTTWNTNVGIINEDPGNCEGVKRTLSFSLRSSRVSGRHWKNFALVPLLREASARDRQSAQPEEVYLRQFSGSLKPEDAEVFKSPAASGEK
- EXPERIMENT: Capsaicin-based assay, Protocol 2 (TRPV1/CHO cells, Fluo-4, FLIPR)
- Type: cell-based
- DETAILS: capsaicin 100 nM final, mean ± SEM, number of trials in parentheses, read-out: TRPV1 IC50 Potency, Human Capsaicin CHO (hCAP-CHO)
READOUT NAME: IC50 (nM)

Worked set:
COMPOUND	SYSTEM UNDER TEST	IC50, nM
Cc1cc(NC(=O)N2CCC(F)(c3ncc([C@@H](O)CO)cc3Cl)CC2)ccc1OC(F)(F)F [Compound V5]	human TRPV1 (Homo sapiens, UniProt Q8NER1)	45.5
O=C(Nc1nc2ccc(Cl)cc2s1)N1CCC(F)(c2ncc([C@H](O)CO)cc2Cl)CC1 [Compound Z4]	human TRPV1 (Homo sapiens, UniProt Q8NER1)	62.8
COCc1cnc(C2=CCN(C(=O)Nc3ccc(C(F)(F)F)cn3)CC2)c(Cl)c1 [Compound H3]	human TRPV1 (Homo sapiens, UniProt Q8NER1)	1110
O=C(Nc1ccc(OC(F)(F)F)c(Br)c1)N1CC=C(c2ncc(CO)cc2Cl)CC1 [Compound R2]	human TRPV1 (Homo sapiens, UniProt Q8NER1)	200
O=C(Nc1ccc(C(F)(F)F)cn1)N1CC=C(c2ncc([C@H](O)CO)cc2F)CC1 [Compound K4]	human TRPV1 (Homo sapiens, UniProt Q8NER1)	210

A = CCOC(=O)c1cnc(C2=CCN(C(=O)Nc3ccc(C(F)(F)F)cc3)CC2)c(Cl)c1 [Compound F2]
B = O=C(Nc1ccc(Cl)c(C(F)(F)F)c1)N1CCC(F)(c2ncc([C@@H](O)CO)cc2F)CC1 [Compound G5]
**Query** Field: lower recorded IC50 (choose A or B ) Answer by quoting the chosen item's label.
**Result** A
(A: 108 nM, B: 400 nM)

a = O=C(Nc1ccc(C(F)(F)F)cc1)N1CC=C(c2ncc(C(F)(F)CO)cc2Cl)CC1 [Compound F4]
b = O=C(Nc1ccc(C(F)(F)F)c(F)c1)N1CCC(F)(c2ncc([C@@H](O)CO)cc2F)CC1 [Compound A6]
**Query** // pick min by IC50: a , b Indicate your choice by writing its label.
**Result** b
(b: 49.8 nM, a: 86.7 nM)

A = O=C(Nc1ccc(Br)c(C(F)(F)F)c1)N1CC=C(c2ncc([C@H](O)CO)cc2Cl)CC1 [Compound P2]
B = O=C(Nc1nc2ccc(Cl)cc2[nH]1)N1CC=C(c2ncc([C@@H](O)CO)cc2Cl)CC1 [Compound Q4]
C = O=C(Nc1ccc(OC(F)(F)F)cc1)N1CCN(c2ncc([C@H](O)CO)cc2Cl)CC1 [Compound L6]
**Query** Thanks in advance: please rank these 3 entries by IC50, highest to lowest. Please list the labels in the order you were asked to rank them.
**Result** B, A, C
